# System: Escherichia coli
# measurementDescription: Antibacterial activity against Escherichia coli at 10 ug/ml by agar plate diffusion technique
# Assay type: functional
# testParameters: read-out: IZ
Recorded measurements of zone of inhibition at 10 µg/mL, one per entry
Reply with just the number (in mm).

Consider the following illustrative entries.
{"columns": ["compound", "measuredAttribute", "measurement"],
 "data": [
  ["COc1ccc2[nH]cc(Cc3nn4c(-c5ccoc5C)nnc4s3)c2c1", "zone of inhibition at 10 µg/mL", 5.16],
  ["COc1ccc(Cl)c(-c2nnc3sc(Cc4c(C)[nH]c5ccc(OC)cc45)nn23)c1", "zone of inhibition at 10 µg/mL", 4.26],
  ["COc1ccc(Cl)c(-c2nnc3sc(-c4ccnc5ccccc45)nn23)c1", "zone of inhibition at 10 µg/mL", 8.28],
  ["Cc1occc1-c1nnc2n1NC(c1ccc([N+](=O)[O-])o1)S2 (stereo unspecified)", "zone of inhibition at 10 µg/mL", 5.78],
  ["COc1ccc(Cl)c(-c2nnc3sc(-c4cc(O)nc(O)c4)nn23)c1", "zone of inhibition at 10 µg/mL", 4.18]
]}

-- ask Given the entry Cc1occc1-c1nnc2n1NC(c1ccc[nH]1)S2 (stereo unspecified) , what zone of inhibition at 10 µg/mL was observed with Escherichia coli?
-- reply 5.11

-- ask And then "COc1ccc(Cl)c(-c2nnc(S)n2N)c1" , what is it?
-- reply 5.08

-- ask And then "Cc1occc1-c1nnc2sc(-c3ccnc(Cl)c3)nn12" , what is it?
-- reply 7.48

-- ask And then "COc1ccc(Cc2nnc3sc(-c4ccnc(F)c4)nn23)cc1OC" , what is it?
-- reply 7.96

-- ask And then "Cc1occc1-c1nnc2sc(-c3ccnc4ccccc34)nn12" , what is it?
-- reply 8.74

-- ask And then "COc1ccc(Cl)c(-c2nnc3sc(-c4cc(C)nc5ccccc45)nn23)c1" , what is it?
-- reply 5.16

====

# Test system: Escherichia coli
# measurementDescription: Antibacterial activity against Escherichia coli at 20 ug/ml by agar plate diffusion technique
# Format: functional
# testParameters: read-out: IZ
Outcome label depends on zone of inhibition at 20 µg/mL relative to 9 mm: at/above gives class 1, below gives class 0.

Some solved entries appear below for comparison.
{"columns": ["molecule", "classification"],
 "data": [
  ["COc1ccc(Cl)c(-c2nnc3n2NC(c2ccco2)S3)c1 (configuration not stated)", "class 0"],
  ["COc1ccc(Cl)c(-c2nnc3n2NC(c2ccc([N+](=O)[O-])o2)S3)c1 (configuration not stated)", "class 1"],
  ["COc1ccc(Cc2nnc3n2NC(c2ccc([N+](=O)[O-])o2)S3)cc1OC (configuration not stated)", "class 1"],
  ["Cc1occc1-c1nnc2n1NC(c1ccco1)S2 (configuration not stated)", "class 0"],
  ["COc1ccc(Cc2nnc3n2NC(c2ccco2)S3)cc1OC (configuration not stated)", "class 0"]
]}

-- ask Quick check: does "COc1ccc2[nH]cc(Cc3nn4c(Cc5ccc(OC)c(OC)c5)nnc4s3)c2c1" have zone of inhibition at 20 µg/mL greater than or equal to 9 mm?
-- reply class 0

-- ask And then Cc1occc1-c1nnc2n1NC(c1ccc([N+](=O)[O-])o1)S2 (configuration not stated) , what is it?
-- reply class 1

-- ask And then "COc1ccc(Cc2nnc3sc(-c4ccnc(Cl)c4)nn23)cc1OC" , what is it?
-- reply class 1

-- ask And then "COc1ccc(Cl)c(-c2nnc3sc(-c4ccnc(F)c4)nn23)c1" , what is it?
-- reply class 1

-- ask And then "Cc1occc1-c1nnc2sc(-c3ccnc4ccccc34)nn12" , what is it?
-- reply class 1

-- ask And then "COc1ccc2[nH]c(C)c(Cc3nn4c(Cc5ccc(OC)c(OC)c5)nnc4s3)c2c1" , what is it?
-- reply class 0

-- ask And then "COc1ccc(Cl)c(-c2nnc3sc(Cc4c[nH]c5ccccc45)nn23)c1" , what is it?
-- reply class 0

-- ask And then "COc1ccc(Cc2nnc3sc(Cc4c[nH]c5ccccc45)nn23)cc1OC" , what is it?
-- reply class 0

-- ask And then "COc1ccc(Cc2nnc3sc(-c4ccnc5ccccc45)nn23)cc1OC" , what is it?
-- reply class 1

-- ask And then "COc1ccc(Cc2nnc3sc(-c4cc(O)nc(O)c4)nn23)cc1OC" , what is it?
-- reply class 0

-- ask And then "COc1ccc2[nH]cc(Cc3nn4c(-c5ccoc5C)nnc4s3)c2c1" , what is it?
-- reply class 1

-- ask And then "Cc1occc1-c1nnc2sc(-c3ccnc(F)c3)nn12" , what is it?
-- reply class 1

-- ask And then COc1ccc(Cl)c(-c2nnc3n2NC(c2cccn2C)S3)c1 (configuration not stated) , what is it?
-- reply class 0

-- ask And then "Cc1occc1-c1nnc2sc(-c3cc(-c4ccccc4)nc4ccccc34)nn12" , what is it?
-- reply class 1

====

Recorded measurements of zone of inhibition at 20 µg/mL, one per entry
# Test system: Bacillus subtilis
# measurementDescription: Antibacterial activity against Bacillus subtilis at 20 ug/ml by agar plate diffusion technique
# Format: functional
# testParameters: read-out: IZ
Reply with just the number (in mm).

Consider the following illustrative entries.
{"columns": ["molecule", "systemUnderTest", "zone of inhibition at 20 µg/mL / mm"],
 "data": [
  ["COc1ccc(Cc2nnc3sc(-c4cc(C)nc5ccccc45)nn23)cc1OC", "Bacillus subtilis", 10.2],
  ["COc1ccc(Cl)c(-c2nnc3n2NC(c2ccc([N+](=O)[O-])o2)S3)c1 (stereo not drawn)", "Bacillus subtilis", 8.71],
  ["COc1ccc(Cl)c(-c2nnc3sc(-c4cc(O)nc(O)c4)nn23)c1", "Bacillus subtilis", 8.38],
  ["COc1ccc(Cl)c(-c2nnc(S)n2N)c1", "Bacillus subtilis", 7.05],
  ["COc1ccc(Cc2nnc3sc(-c4ccnc(F)c4)nn23)cc1OC", "Bacillus subtilis", 14.4]
]}

-- ask Could you share which zone of inhibition at 20 µg/mL value was measured for "Cc1occc1-c1nnc2sc(-c3cc(-c4ccccc4)nc4ccccc34)nn12" ?
-- reply 11.8

-- ask And then "COc1ccc2[nH]cc(Cc3nn4c(-c5ccoc5C)nnc4s3)c2c1" , what is it?
-- reply 9.61

-- ask And then COc1ccc(Cc2nnc3n2NC(c2ccco2)S3)cc1OC (stereo not drawn) , what is it?
-- reply 6.65

====

# Test system: Aspergillus niger
# measurementDescription: Antifungal activity against Aspergillus niger at 30 ug/ml by paper disc method
# Format: functional
# testParameters: read-out: IZ
measuredAttribute: zone of inhibition at 30 µg/mL (mm)
Reply with just the number (in mm).

-- ask Given the entry "COc1ccc2[nH]cc(Cc3nn4c(-c5ccoc5C)nnc4s3)c2c1" , what zone of inhibition at 30 µg/mL was observed with Aspergillus niger?
-- reply 13.1

-- ask And then "COc1ccc(Cl)c(-c2nnc3sc(-c4cc(-c5ccccc5)nc5ccccc45)nn23)c1" , what is it?
-- reply 17.6

-- ask And then COc1ccc(Cc2nnc3n2NC(c2ccco2)S3)cc1OC (stereo not given) , what is it?
-- reply 12.3

-- ask And then "COc1ccc2[nH]c(C)c(Cc3nn4c(Cc5ccc(OC)c(OC)c5)nnc4s3)c2c1" , what is it?
-- reply 10.8

-- ask And then "COc1ccc(Cc2nnc3sc(-c4cc(O)nc(O)c4)nn23)cc1OC" , what is it?
-- reply 11.9

====

Recorded measurements of Activity, one per entry
# System: Mus musculus
# measurementDescription: Analgesic activity in Swiss mouse assessed as increase in reaction time at 20 mg/kg, po after 60 mins by Eddy's hot plate technique
# Format: functional
Reply with just the number (in %).

{"columns": ["compound", "measuredAttribute", "measurementUnit", "measurement"],
 "data": [
  ["COc1ccc(Cc2nnc3n2NC(c2ccc[nH]2)S3)cc1OC (centres undefined)", "Activity", "%", 12.65],
  ["Cc1occc1-c1nnc2n1NC(c1ccco1)S2 (centres undefined)", "Activity", "%", 15.18]
]}

In the following, a different compound is considered.
-- ask Could you share which Activity value was measured for "Cc1occc1-c1nnc2sc(-c3ccnc(Cl)c3)nn12" ?
-- reply 11.35

====

# Test system: Staphylococcus aureus
# measurementDescription: Antibacterial activity against Staphylococcus aureus at 20 ug/ml by agar plate diffusion technique
# Type: functional
# testParameters: read-out: IZ
measuredAttribute: zone of inhibition at 20 µg/mL (mm)
Reply with just the number (in mm).

{"columns": ["compound", "measurementUnit", "zone of inhibition at 20 µg/mL"],
 "data": [
  ["Cc1cc(-c2nn3c(-c4ccoc4C)nnc3s2)c2ccccc2n1", "mm", 13.7],
  ["COc1ccc(Cc2nnc3sc(-c4cc(C)nc5ccccc45)nn23)cc1OC", "mm", 11.7],
  ["COc1ccc(Cc2nnc(S)n2N)cc1OC", "mm", 7.14],
  ["COc1ccc(Cl)c(-c2nnc3n2NC(c2ccc([N+](=O)[O-])o2)S3)c1 (stereo unspecified)", "mm", 8.82],
  ["Cc1occc1-c1nnc2sc(-c3ccnc(F)c3)nn12", "mm", 14.2]
]}

-- ask Could you share which zone of inhibition at 20 µg/mL value was measured for "COc1ccc(Cc2nnc3sc(-c4ccnc(Cl)c4)nn23)cc1OC" ?
-- reply 13.6

-- ask And then Cc1occc1-c1nnc2n1NC(c1ccco1)S2 (stereo unspecified) , what is it?
-- reply 12.3

-- ask And then "Cc1occc1-c1nnc2sc(-c3cc(O)nc(O)c3)nn12" , what is it?
-- reply 10.8

-- ask And then "COc1ccc2[nH]c(C)c(Cc3nn4c(-c5ccoc5C)nnc4s3)c2c1" , what is it?
-- reply 9.12

-- ask And then "COc1ccc(Cl)c(-c2nnc3sc(-c4ccnc5ccccc45)nn23)c1" , what is it?
-- reply 13.2

-- ask And then "COc1ccc(Cl)c(-c2nnc3sc(-c4cc(O)nc(O)c4)nn23)c1" , what is it?
-- reply 8.82
